Test system: 3-hydroxyacyl-CoA dehydrogenase type-2 (Homo sapiens) (UniProt Q99714)
Sequence (Q99714 whole entry, looked up): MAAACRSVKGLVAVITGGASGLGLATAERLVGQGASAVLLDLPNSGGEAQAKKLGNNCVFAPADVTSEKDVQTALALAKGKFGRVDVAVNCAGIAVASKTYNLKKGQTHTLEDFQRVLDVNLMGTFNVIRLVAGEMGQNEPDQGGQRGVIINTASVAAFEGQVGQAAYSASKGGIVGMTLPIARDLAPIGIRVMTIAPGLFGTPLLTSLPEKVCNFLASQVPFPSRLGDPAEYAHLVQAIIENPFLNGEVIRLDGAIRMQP
Sequence (Q99714 whole entry, looked up): as above
Assay method text: qHTS Assay for Inhibitors of HADH2 (Hydroxyacyl-Coenzyme A Dehydrogenase, Type II); further: nearly all actives have a fitted effect of over 60% in size
Measurement parameters: recombinant HADH2, NADH fluorescence, beta-hydroxybutyryl-CoA; series mostly up to 57.1 µM
Among all 73,000 compounds or so, about 2,500 (3.4%) were called active. Not shown: some 7% with an inconclusive outcome. The call rests on the fitted dose curve; in most records, active means well fitted inhibition curve with a large enough effect; inconclusive means small, poorly fitted or top-dose-only effect; inactive means no such curve, though single readings can be large or run the other way. The list comes from a sample in which actives are over-represented; it also holds close analogues and randomly drawn compounds.
// one of Yes = active, No = inactive, no free text

Would you mind telling me which call this test gave CCOc1c(OC)cc(C2C(C#N)=C(N)Oc3n[nH]c(-c4ccncc4)c32)cc1OC (centres undefined) ? Yes

Tell me the recorded outcome of this test for Cc1nnc(SCc2ccc(C(=O)c3ccc(Cl)cc3)o2)n1-c1ccccc1 . No

Dear all, I need the recorded test outcome for CC(C)C[C@@H](CC(=O)N[C@@H](CCC(=O)O)CC(=O)O)NC(=O)[C@@H]1CCCC[C@H]1NC(=O)C[C@@H](NC(=O)C[C@H](Cc1c[nH]c2ccccc12)NC(=O)[C@@H]1CCCC[C@H]1N)C(C)C , thank you. No

Call for entry O=C(O)c1nccnc1C(=O)Nc1ccc(Br)cn1 : No
